assayNotes: Stability study for Fesoterodine Fumarate (description, water by KF, related substances by HPLC on storage)
Assay type: physicochemical
testContext: 2 Months 40° C. ± 2° C./RH 75% ± 5%; PSD: D(90) = 270 microns
quantityName: Related substance i) Diol (%)

[[record]]
compound = "CC(C)C(=O)Oc1ccc(CO)cc1[C@H](CCN(C(C)C)C(C)C)c1ccccc1.O=C(O)/C=C/C(=O)O [Fesoterodine Fumarate]"
unitabbreviation = "%"
measuredvalue = 0.5


----------
assayNotes: Stability study for Fesoterodine Fumarate (description, water by KF, related substances by HPLC on storage)
Assay type: physicochemical
testContext: Initial; PSD: D(90) = 270 microns
quantityName: Related substance v) Total impurities (%)

[[record]]
compound = "CC(C)C(=O)Oc1ccc(CO)cc1[C@H](CCN(C(C)C)C(C)C)c1ccccc1.O=C(O)/C=C/C(=O)O [Fesoterodine Fumarate]"
quantityname = "Related substance v) Total impurities"
unitabbreviation = "%"
measuredvalue = 0.21


----------
assayNotes: Stability study for Fesoterodine Fumarate (description, water by KF, related substances by HPLC on storage)
Format: physicochemical
testContext: 2 Months 40° C. ± 2° C./RH 75% ± 5%; PSD: D(90) = 270 microns
quantityName: Related substance v) Total impurities

[[record]]
compound = "CC(C)C(=O)Oc1ccc(CO)cc1[C@H](CCN(C(C)C)C(C)C)c1ccccc1.O=C(O)/C=C/C(=O)O [Fesoterodine Fumarate]"
measuredvalue = "0.22%"


----------
assayNotes: Stability study for Fesoterodine Fumarate (description, water by KF, related substances by HPLC on storage)
Format: physicochemical
testContext: 2 Months 40° C. ± 2° C./RH 75% ± 5%; PSD: D(90) = 270 microns
quantityName: Related substance iv) Any individual impurities (%)

[[record]]
molecule = "CC(C)C(=O)Oc1ccc(CO)cc1[C@H](CCN(C(C)C)C(C)C)c1ccccc1.O=C(O)/C=C/C(=O)O [Fesoterodine Fumarate]"
measuredvalue = 0.07


----------
assayNotes: Stability study for Fesoterodine Fumarate (description, water by KF, related substances by HPLC on storage)
Format: physicochemical
testContext: 2 Months 25° C. ± 2° C./RH 60% ± 5%; PSD: D(90) = 270 microns
quantityName: Related substance v) Total impurities

[[record]]
molecule = "CC(C)C(=O)Oc1ccc(CO)cc1[C@H](CCN(C(C)C)C(C)C)c1ccccc1.O=C(O)/C=C/C(=O)O [Fesoterodine Fumarate]"
measuredvalue = "0.04%"


----------
assayNotes: Stability study for Fesoterodine Fumarate (description, water by KF, related substances by HPLC on storage)
Format: physicochemical
testContext: 3 Months 40° C. ± 2° C./RH 75% ± 5%; PSD: D(90) = 270 microns
quantityName: Related substance v) Total impurities (%)

[[record]]
compound = "CC(C)C(=O)Oc1ccc(CO)cc1[C@H](CCN(C(C)C)C(C)C)c1ccccc1.O=C(O)/C=C/C(=O)O [Fesoterodine Fumarate]"
quantityname = "Related substance v) Total impurities"
measuredvalue = 0.22

